Molecular target: T1, cynomolgus monkey BCMA (cynomolgus monkey, UniProt A0A2K5UD97 1-53)
T1 construct: Soluble analyte in SPR; construct not described; also called cyBCMA; Cyno BCMA
T1 sequence (A0A2K5UD97 entry or part of it): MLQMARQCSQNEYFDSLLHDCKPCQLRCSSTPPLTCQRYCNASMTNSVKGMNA
Test: SPR, IgG immobilised, 37 C
VALUE_KIND: T ½

| BINDER | VALUE_MEASURED |
| --- | --- |
| L3.PY/L1.AH/H3.YA (antibody, V domains shown, IgG) VH: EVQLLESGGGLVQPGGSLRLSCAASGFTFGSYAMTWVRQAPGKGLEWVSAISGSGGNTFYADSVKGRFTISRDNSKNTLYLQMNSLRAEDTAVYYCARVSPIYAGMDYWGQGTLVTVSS VL: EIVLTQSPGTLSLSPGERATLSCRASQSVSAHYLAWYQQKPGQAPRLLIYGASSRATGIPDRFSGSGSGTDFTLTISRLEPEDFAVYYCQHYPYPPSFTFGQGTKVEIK | 2.2 min |
| L3.PY/H2.LT (antibody, V domains shown, IgG) VH: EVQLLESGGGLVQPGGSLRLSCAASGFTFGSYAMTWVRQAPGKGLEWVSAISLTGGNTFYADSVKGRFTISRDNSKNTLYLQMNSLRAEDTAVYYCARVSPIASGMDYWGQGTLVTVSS VL: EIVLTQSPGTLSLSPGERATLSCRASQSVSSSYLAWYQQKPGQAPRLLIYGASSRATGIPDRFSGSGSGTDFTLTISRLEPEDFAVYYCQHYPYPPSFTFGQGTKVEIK | 1.53 min |
| L3.PY/L1.FF/P6E01 (antibody, V domains shown, IgG) VH: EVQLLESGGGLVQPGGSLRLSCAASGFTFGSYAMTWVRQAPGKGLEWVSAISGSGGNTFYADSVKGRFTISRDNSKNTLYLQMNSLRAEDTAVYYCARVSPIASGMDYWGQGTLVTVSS VL: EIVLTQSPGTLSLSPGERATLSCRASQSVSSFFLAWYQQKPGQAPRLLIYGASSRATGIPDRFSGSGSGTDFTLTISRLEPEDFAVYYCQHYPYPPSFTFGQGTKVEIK | 1.96 min |
